# system: human MRGPRX2 (Homo sapiens, UniProt Q96LB1)
# Sequence (Q96LB1 1-330): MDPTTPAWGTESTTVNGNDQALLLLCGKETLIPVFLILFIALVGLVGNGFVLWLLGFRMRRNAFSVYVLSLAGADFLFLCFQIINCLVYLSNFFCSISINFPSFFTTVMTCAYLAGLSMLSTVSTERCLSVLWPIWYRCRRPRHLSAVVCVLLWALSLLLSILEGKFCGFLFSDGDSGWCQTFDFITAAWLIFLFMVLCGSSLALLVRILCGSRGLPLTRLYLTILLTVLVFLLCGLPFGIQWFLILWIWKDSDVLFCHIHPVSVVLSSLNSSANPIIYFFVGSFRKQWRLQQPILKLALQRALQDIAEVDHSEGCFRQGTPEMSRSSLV
# assay info: MRGPRX2 Activity Assay (IP-1 HTRF, antagonist mode)
# particulars: FlpIn TRex-MRGPRX2-HEK293 cells; versus 1 μM Cortistatin-14 agonist; 30 minutes preincubation
parameter measured: IC50 (nM)
Please reply with the bare figure in nM and do not write the unit itself.

{"compound": "C[C@@H](C(=O)Nc1cn2c(n1)CC[C@@H]2c1cc(F)cc(F)c1)N1CCC(F)(F)[C@](C)(c2cc[n+]([O-])cc2)C1 (single isomer, unassigned) [Compound 520]", "system": "human MRGPRX2 (Homo sapiens, UniProt Q96LB1)", "unit abbrev": "nM", "IC50": 129}

Next item in the queue.
Record C[C@@H](C(=O)Nc1cn(Cc2cccc(F)c2)cn1)N1CCC(F)(F)[C@@H](c2cc[n+]([O-])cc2)C1 [Compound 38] , field IC50: 93

---

# system: human MRGPRX2 (Homo sapiens, UniProt Q96LB1)
# Construct: expressed in transfected cells; host or cells: FlpIn TRex HEK293 (TRex-MRGPRX2-HEK), doxycycline-induced
# assay info: MRGPRX2 Activity Assay (IP-1 HTRF, antagonist mode)
# Format: cell-based
# particulars: FlpIn TRex-MRGPRX2-HEK293 cells; versus 1 μM Cortistatin-14 agonist; 30 minutes preincubation
# if measured IC50 < 200 nM: TRUE  # else: FALSE

Challenge: Just wondering, is IC50 of C[C@@H](C(=O)Nc1cn([C@@H](C)c2cc(F)cc(F)c2)cn1)N1CCC(F)(F)[C@@H](c2cc[n+]([O-])cc2)C1 (single isomer, unassigned) below 200 nM?
Response given: FALSE

---

Measured pIC50 values are reported for all entries that follow.
# system: human MRGPRX2 (Homo sapiens, UniProt Q96LB1)
# Sequence (Q96LB1 1-330): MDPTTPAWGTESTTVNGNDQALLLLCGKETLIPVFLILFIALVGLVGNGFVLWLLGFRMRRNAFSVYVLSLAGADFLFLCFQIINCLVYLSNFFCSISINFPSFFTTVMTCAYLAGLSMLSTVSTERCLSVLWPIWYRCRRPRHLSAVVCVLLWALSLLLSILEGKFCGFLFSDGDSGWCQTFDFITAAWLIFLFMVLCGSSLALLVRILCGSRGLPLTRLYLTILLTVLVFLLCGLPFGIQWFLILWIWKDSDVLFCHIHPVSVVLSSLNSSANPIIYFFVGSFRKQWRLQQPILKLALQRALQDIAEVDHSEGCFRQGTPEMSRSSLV
# assay info: MRGPRX2 Activity Assay (IP-1 HTRF, antagonist mode)
# particulars: FlpIn TRex-MRGPRX2-HEK293 cells; versus 1 μM Cortistatin-14 agonist; 30 minutes preincubation
# Protocol: FlpIn TRex-MRGPRX2-HEK293 cells (herein TRex-MRPGRX2-HEK) stably transfected to express human MRGPRX2 were maintained at 37° C. with 5% CO2 and grown in DMEM supplemented with 10% FBS, 1% L-Glutamate, 1% penicillin/streptomycin, 100 ug/mL Hygromycin B, and 15 ug/mL Blasticidin. […] Antagonist equilibrium was established with 30 minutes preincubation, followed by no wash, direct addition, and stimulation of agonist for 1 hour at 37° C./5% CO2. […] The plate was read on an EnVision XCite plate reader. […]
Note: pIC50 values are expressed as the negative base-10 logarithm of concentration in M.

Some entries whose results are on file:
{"compound": "C[C@@H](C(=O)Nc1nc2ccccc2s1)N1CCC(F)(F)[C@@H](c2cc[n+]([O-])cc2)C1 (single isomer, unassigned)", "pIC50": 4.90}
{"compound": "C[C@@H](C(=O)Nc1cn(Cc2ccncc2Cl)cn1)N1CCC(F)(F)[C@@H](c2cc[n+]([O-])cc2)C1", "pIC50": 6.94}
{"compound": "C[C@@H](C(=O)Nc1coc(Cc2cc(F)cc(F)c2)n1)N1CCC(F)(F)[C@@H](c2cc[n+]([O-])cc2)C1 (single isomer, unassigned)", "pIC50": 6.23}
{"compound": "C[C@@H](C(=O)Nc1cn(Cc2cccc(Cl)c2)cn1)N1CCC(F)(F)[C@@H](c2cc[n+]([O-])cc2)C1", "pIC50": 6.88}
{"compound": "C[C@@H](C(=O)Nc1cn(Cc2ccccc2C(F)(F)F)cn1)N1CCC(F)(F)[C@@H](c2cc[n+]([O-])cc2)C1", "pIC50": 6.57}
{"compound": "C[C@H](C(=O)Nc1cn(Cc2cc(F)cc(F)c2)c(CF)n1)N1CCC(F)(F)[C@@H](c2cc[n+]([O-])cc2)C1 (single isomer, unassigned)", "pIC50": 6.32}

Record C[C@@H](C(=O)Nc1cn(-c2cc(F)cc(F)c2)cn1)N1CCC(F)(F)[C@@H](c2cc[n+]([O-])cc2)C1 , field pIC50: 6.29

Record C[C@@H](C(=O)Nc1cn(Cc2ccccc2F)cn1)N1CCC(F)(F)[C@@H](c2cc[n+]([O-])cc2)C1 , field pIC50: 7.27

Recorded values, source patent US20250122171A1.
